Values compiled from PubChem BioAssay (NCI).

# Test system: KM12 colon
# assay notes: NCI-60 one-dose screen, 48 h (100 = growth as untreated, 0 = no growth, -100 = all killed)
# experimental context: 10 µM unless noted
This is part of a sample that, as a whole, favours compounds with a hit. Of some 83,000 tested, about 20% had one in any assay.
metric name: growth (%)
Response body: numeric value in %, unit text excluded.

C=CCc1cc(C)ccc1NC(C(=O)NCC(=O)OC)c1ccccc1 (stereo not drawn) :: 99.4
COC(=O)/C=C1\S/C(=N\Nc2ccc([N+](=O)[O-])cc2[N+](=O)[O-])N(C2CCCCC2)C1=O :: 45.9
COc1cc(C(=O)/C=C/c2sc(Cl)nc2Cl)cc(OC)c1OC :: 28.4
CN(C(=O)NCc1cccc(F)c1Cl)[C@H](COC(=O)Nc1cc2ccccc2cn1)CC(O)CO (stereo partly drawn) :: 104
Cc1ccc(/C=C(\C#N)n2nc3cccc(F)c3n2)cc1 :: 68.2
S=c1nc(-c2ccccc2)oc(=NC2CCCCC2)n1C1CCCCC1 :: 10.7
CCc1cccc2c3c(sc12)C(c1ccc(F)cc1)C(C#N)=C(N)O3 (stereo not drawn) :: 25.1
COc1cc2cc(Oc3ccc(NC(=O)Nc4ccc(Cl)c(Cl)c4)cc3)c(C)nc2cc1OCCN1CCOCC1 :: 91.7

*Q* Query: growth; subject: C=C1C(=O)O[C@H]2[C@H]1CC/C(COC(=O)CSCC(=O)OC/C1=C/CC[C@@]3(C)O[C@H]3[C@H]3OC(=O)C(=C)[C@@H]3CC1)=C\CC[C@@]1(C)O[C@@H]21
*A* 69.4

*Q* Query: growth; subject: Cc1ccc(C(=O)NN2C(=O)CSC2c2ccc(Cl)cc2)cn1 (stereo not drawn)
*A* 97.9
